- Assayed System: rat brain P2Y1-receptor (Rattus norvegicus, UniProt P49651)
- Sequence (P49651 whole entry): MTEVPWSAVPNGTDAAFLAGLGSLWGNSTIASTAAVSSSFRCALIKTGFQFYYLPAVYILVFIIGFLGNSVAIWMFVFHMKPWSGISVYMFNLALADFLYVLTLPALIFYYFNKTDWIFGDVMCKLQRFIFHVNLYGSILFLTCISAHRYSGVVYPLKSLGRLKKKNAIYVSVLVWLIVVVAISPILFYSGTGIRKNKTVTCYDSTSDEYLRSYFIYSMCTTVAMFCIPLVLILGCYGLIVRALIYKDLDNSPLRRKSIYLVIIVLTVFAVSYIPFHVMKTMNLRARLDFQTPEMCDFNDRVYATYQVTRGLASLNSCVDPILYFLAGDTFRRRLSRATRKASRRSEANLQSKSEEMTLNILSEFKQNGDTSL
- Protocol Description: Agonist-induced Ca2+ release in HEK 293 cells stably transfected with P2Y1-receptor
- Experimental Setup: Ca^2+ release, HEK 293 cells with rat brain P2Y1-receptor
- Description: To examine the efficacy of analogues 30a,d in a functional assay, we tested them by the agonist-induced Ca^2+ release in HEK 293 cells stably transfected with rat brain P2Y1-receptor (FIG. 6) (Voehringer et al., 2000). […] However, a benzyl substitution at N^6 of 30a, as in analogue 30d, reduced the ligand's potency. […] EC50 value in the range of 10^−6 M.
pEC50: −log10 of the molar value.
Can you tell me pEC50 for the items I'm about to list?

Would you kindly share the measured pEC50 for O=P(O)(O)OP(=O)(O)OP(=O)(O)OCC1OC(n2cnc3c(NCc4ccccc4)nc4nccn4c32)C(O)C1O (centres unmarked) [Compound 30d] ? ~6.00

Now the compound Nc1nc2nccn2c2c1ncn2C1OC(COP(=O)(O)OP(=O)(O)OP(=O)(O)O)C(O)C1O (centres unmarked) [Compound 30a, N^2,N3-ethenoadenosine-5′-triphosphate] ~7.00
